- ASSAY_TEXT: TD-6450 phase I clinical study (SAD/MAD): pharmacokinetics
- Type: in vivo, human
- PROTOCOL_CONDITIONS: male, human, plasma, oral, 60 mg, Male subjects, SAD arm NCT02022306, Dose 60.00, 15 Minutes; read-out: Concentration (ng/ml)
EXPERIMENTAL_READOUT: concentration at 15 min (ng/mL)
Return type: number; implicit unit ng/mL.

Task: Look up concentration at 15 min for this compound: "CNC(=O)N1C[C@@H](C)N(c2ccc(C(=O)Nc3ccc(-c4ccc(-c5c[nH]c([C@@H]6CCCN6C(=O)[C@@H](NC(=O)OC)C(C)C)n5)cc4)c(OC(F)(F)F)c3)cn2)C[C@@H]1C"
Result: 0

---

- ASSAY_TEXT: TD-6450 phase I clinical study (SAD/MAD): pharmacokinetics
- Type: in vivo, human
- PROTOCOL_CONDITIONS: male, human, in vivo, TD-6450 concentration
EXPERIMENTAL_READOUT: concentration at 48 h (ng/mL)
Return type: number; implicit unit ng/mL.

Task: Look up concentration at 48 h for this molecule: CNC(=O)N1C[C@@H](C)N(c2ccc(C(=O)Nc3ccc(-c4ccc(-c5c[nH]c([C@@H]6CCCN6C(=O)[C@@H](NC(=O)OC)C(C)C)n5)cc4)c(OC(F)(F)F)c3)cn2)C[C@@H]1C [TD-6450]
Result: 60

---

- ASSAY_TEXT: TD-6450 phase I clinical study (SAD/MAD): pharmacokinetics
- Type: in vivo, human
- PROTOCOL_CONDITIONS: female, human, plasma, oral, 15 mg, Female subjects, SAD arm NCT02022306, Dose 15.00, 3 Hours; read-out: Concentration
EXPERIMENTAL_READOUT: concentration at 3 h (ng/mL)
Return type: number; implicit unit ng/mL.

Task: Look up concentration at 3 h for this compound: "CNC(=O)N1C[C@@H](C)N(c2ccc(C(=O)Nc3ccc(-c4ccc(-c5c[nH]c([C@@H]6CCCN6C(=O)[C@@H](NC(=O)OC)C(C)C)n5)cc4)c(OC(F)(F)F)c3)cn2)C[C@@H]1C"
Result: 13.9

---

- ASSAY_TEXT: TD-6450 phase I clinical study (SAD/MAD): pharmacokinetics
- Assay type: in vivo, human
- PROTOCOL_CONDITIONS: both sexes, human, plasma, oral, 30 mg, SAD 30 mg; read-out: Cmax Mean ± SD
EXPERIMENTAL_READOUT: Cmax (nM)
Return type: number; implicit unit nM.

Task: Look up Cmax for this compound: CNC(=O)N1C[C@@H](C)N(c2ccc(C(=O)Nc3ccc(-c4ccc(-c5c[nH]c([C@@H]6CCCN6C(=O)[C@@H](NC(=O)OC)C(C)C)n5)cc4)c(OC(F)(F)F)c3)cn2)C[C@@H]1C [TD-6450]
Result: 37.4

---

- ASSAY_TEXT: TD-6450 phase I clinical study (SAD/MAD): pharmacokinetics
- Type: in vivo, human
- PROTOCOL_CONDITIONS: male, human, in vivo, TD-6450 concentration
EXPERIMENTAL_READOUT: concentration at 312 h

Task: Look up concentration at 312 h for this compound: "CNC(=O)N1C[C@@H](C)N(c2ccc(C(=O)Nc3ccc(-c4ccc(-c5c[nH]c([C@@H]6CCCN6C(=O)[C@@H](NC(=O)OC)C(C)C)n5)cc4)c(OC(F)(F)F)c3)cn2)C[C@@H]1C"
Result: 2.12 ng/mL
